The measured values listed here are drawn from patent US10456477B2.

- Procedure Details: Drug loading efficiency, drug loading content and aqueous solubility of PEG-b-PLA micelles by RP-HPLC
- Type: physicochemical
- Measurement Setup: PEG-b-PLA micelles, aqueous with cosolvent or surfactant or cyclodextrin, Table 1B; PEG-b-PLA micelles; drug to polymer ratio 1:1; read-out: Apparent solubility
Measured Parameter: solubility (µg/mL)

INSERT INTO assay_data (molecule, measured_parameter, value_observed) VALUES
  ('CO[C@H]1C[C@@H]2CC[C@@H](C)[C@@](O)(O2)C(=O)C(=O)N2CCCC[C@H]2C(=O)O[C@H]([C@H](C)C[C@@H]2CC[C@@H](O)[C@H](OC)C2)CC(=O)[C@H](C)/C=C(\C)[C@@H](O)[C@@H](OC)C(=O)[C@H](C)C[C@H](C)/C=C/C=C/C=C/1C [RAP, rapamycin]', 'solubility', 500);
